Subject Of Test: human full-length MKNK1 (Homo sapiens, UniProt Q9BUB5, T385D)
Construct: GST (N)
Sequence (Q9BUB5 1-424 isoform Q9BUB5-2 T344D): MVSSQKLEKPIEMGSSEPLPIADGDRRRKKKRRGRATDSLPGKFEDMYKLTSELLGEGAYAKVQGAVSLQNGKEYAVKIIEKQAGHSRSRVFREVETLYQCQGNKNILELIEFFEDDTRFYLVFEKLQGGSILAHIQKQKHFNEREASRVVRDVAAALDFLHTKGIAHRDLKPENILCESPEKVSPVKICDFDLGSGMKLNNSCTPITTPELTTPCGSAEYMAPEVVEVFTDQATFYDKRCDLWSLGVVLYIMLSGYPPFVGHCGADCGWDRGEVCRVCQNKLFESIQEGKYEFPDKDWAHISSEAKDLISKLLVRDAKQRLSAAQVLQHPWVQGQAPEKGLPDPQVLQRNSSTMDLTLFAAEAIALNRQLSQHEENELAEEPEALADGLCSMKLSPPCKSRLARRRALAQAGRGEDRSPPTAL
Protocol Details: MKNK1 kinase high ATP assay (TR-FRET)
Condition Info: high ATP (2 mM final), 15 min preincubation with enzyme
Endpoint Name: log10 of IC50 (log10 of the value in nM)
// units: nM (pre-log); metric: IC50; scale: log10

Answered cases to consult:
[
  {
    "Chemical Smiles": "O=C(c1[nH]c2ncnc(Nc3ccc4[nH]ncc4c3)c2c1Br)N1CCCCC1",
    "Endpoint Name": "log10 of IC50",
    "Assay Value": 1.65
  },
  {
    "Chemical Smiles": "C=Cc1cc2c(Nc3ccc4[nH]ncc4c3)ncnc2[nH]1",
    "Endpoint Name": "log10 of IC50",
    "Assay Value": 0.85
  }
]

What value of log10 of IC50 has been reported for the following molecule? `C1=C(c2cc3c(Nc4ccc5[nH]ncc5c4)ncnc3[nH]2)CCOC1`
0.30

What value of log10 of IC50 has been reported for the following molecule? `Cc1cc2c(Nc3ccc4[nH]ncc4c3)ncnc2[nH]1`
1.49

What value of log10 of IC50 has been reported for the following molecule? `O=C(NCCO)c1cc2c(Nc3ccc4[nH]ncc4c3)ncnc2[nH]1`
0.95

What value of log10 of IC50 has been reported for the following molecule? `CCc1[nH]c2ncnc(Nc3ccc4[nH]ncc4c3)c2c1C`
1.76

What value of log10 of IC50 has been reported for the following molecule? `O=C(O)c1[nH]c2ncnc(Nc3ccc4[nH]ncc4c3)c2c1Br`
0.70

The reported numbers originate from patent US20150218173A1.
